Test system: 997537-175-T-J1-PDC complex spheroid viability
Assay: Anticancer human tumor 997537-175-T-J1-PDC patient-derived colon adenocarcinoma cell line growth inhibition [GQUAD]
Details: second compound 0.0316 µM; first compound 1 µM; hits give low values
Below, each entry is listed alongside its reported viability, T/C.

Consider the worked cases shown below.
O=C(NO)c1cnc(N2CCN(S(=O)(=O)c3ccc4ccccc4c3)CC2)nc1 + Cc1cnc(CNC(=O)c2c(=O)c3ccc(N4CCCN(C)CC4)nc3n3c2sc2ccccc23)cn1
81.2%
CCCS(=O)(=O)Nc1ccc(F)c(C(=O)c2c[nH]c3ncc(-c4ccc(Cl)cc4)cc23)c1F + Cc1[nH]c2ccc(F)cc2c1-c1nc2c3cccnc3c3ncccc3c2[nH]1
70.1%

Would you kindly share the measured viability, T/C for O=C(NO)c1cnc(N2CCN(S(=O)(=O)c3ccc4ccccc4c3)CC2)nc1 + Cc1[nH]c2ccc(F)cc2c1-c1nc2c3cccnc3c3ncccc3c2[nH]1 ?
35.4%

###

Below, each entry is listed alongside its reported viability, T/C.
Test system: 997537-175-T-J1-PDC complex spheroid viability
Assay: Anticancer human tumor 997537-175-T-J1-PDC cell line growth inhibition [GQUAD];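 note: spheroids exposed to the agents for 7 days; 100% = DMSO vehicle control viability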
Settings: second compound 0.1 µM; first compound 0.1 µM; hits give low values
Excerpt: DNA G-quadruplex Stabilizer Agents in Combinations in Complex Spheroids A high-throughput screen of multi-cell type tumor spheroids was designed to identify active combinations of DNA G-quadruplex stabilizer agents and targeted small molecules. […] Compounds. […] If the clinical Cmax for an agent had not been determined, the highest concentration tested was 10 microM. […]
Answer format: numeric, % implied, no suffix.

Consider the worked cases shown below.
CC1COCCN1c1cc(-c2ccnn2C)c2ccnc(-c3ccn[nH]3)c2n1 (stereo unspecified) + Cc1cnc(CNC(=O)c2c(=O)c3ccc(N4CCCN(C)CC4)nc3n3c2sc2ccccc23)cn1
53.8
COc1cccc2c1C(=O)c1c(O)c3c(c(O)c1C2=O)CC(O)(C(=O)CO)CC3OC1CC(N)C(O)C(C)O1 (stereo unspecified) + CN(C)c1ccc(Nc2c3ccc(NC(=O)CCN4CCCC4)cc3nc3cc(NC(=O)CCN4CCCC4)ccc23)cc1
88.3
CC1COCCN1c1cc(C2(S(C)(=N)=O)CC2)nc(-c2ccnc3[nH]ccc23)n1 (stereo unspecified) + CN(C)c1ccc(Nc2c3ccc(NC(=O)CCN4CCCC4)cc3nc3cc(NC(=O)CCN4CCCC4)ccc23)cc1
80
CCCS(=O)(=O)Nc1ccc(F)c(C(=O)c2c[nH]c3ncc(-c4ccc(Cl)cc4)cc23)c1F + Cc1[nH]c2ccc(F)cc2c1-c1nc2c3cccnc3c3ncccc3c2[nH]1
105
CC1COCCN1c1cc(C2(S(C)(=N)=O)CC2)nc(-c2ccnc3[nH]ccc23)n1 (stereo unspecified) + Cc1cnc(CNC(=O)c2c(=O)c3ccc(N4CCCN(C)CC4)nc3n3c2sc2ccccc23)cn1
90.4

Would you kindly share the measured viability, T/C for CC(C)(O)C1CCC(Nc2ccc3ncc(-c4cccc(C(F)(F)F)c4)n3n2)CC1 (stereo unspecified) + CN(C)c1ccc(Nc2c3ccc(NC(=O)CCN4CCCC4)cc3nc3cc(NC(=O)CCN4CCCC4)ccc23)cc1 ?
89.8

Would you kindly share the measured viability, T/C for C=CCn1c(=O)c2cnc(Nc3ccc(N4CCN(C)CC4)cc3)nc2n1-c1cccc(C(C)(C)O)n1 + CN(C)c1ccc(Nc2c3ccc(NC(=O)CCN4CCCC4)cc3nc3cc(NC(=O)CCN4CCCC4)ccc23)cc1 ?
85.2

Cited source for all entries: PubChem BioAssay AID2060487
